As shown below, each of these compounds has a reported log10 IC50 value.
# test-target: Carbonic anhydrase 1 (Homo sapiens, UniProt P00915)
# Sequence (P00915 whole entry): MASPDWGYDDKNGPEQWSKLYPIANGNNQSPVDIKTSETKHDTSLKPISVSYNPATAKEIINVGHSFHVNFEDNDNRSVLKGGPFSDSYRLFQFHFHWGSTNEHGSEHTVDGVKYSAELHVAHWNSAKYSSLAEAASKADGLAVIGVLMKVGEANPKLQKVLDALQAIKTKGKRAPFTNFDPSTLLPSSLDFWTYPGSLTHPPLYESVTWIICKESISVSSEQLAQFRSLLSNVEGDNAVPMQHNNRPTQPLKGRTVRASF
# protocol-text: Hydratase Activity Assay
Friendly reminder: values = log10 of IC50, unit nM.

| molecule-smiles | observed-property | readout-value |
| --- | --- | --- |
| CC(=O)C(=NNc1ccc(-n2nc(C(=O)Nc3nnc(S(N)(=O)=O)s3)c(C(=O)c3ccccc3)c2-c2ccccc2)cc1)C(C)=O | log10 IC50 | 2.52 |
| CCOC(=O)/C(=N/Nc1ccc(-n2nc(C(=O)Nc3nnc(S(N)(=O)=O)s3)c(C(=O)c3ccccc3)c2-c2ccccc2)cc1)C(=O)c1ccccc1 | log10 IC50 | 3.12 |
| CC(=O)/C(=N\Nc1ccc(-n2nc(C(=O)Nc3nnc(S(N)(=O)=O)s3)c(C(=O)c3ccccc3)c2-c2ccccc2)cc1)C(=O)c1ccccc1 | log10 IC50 | 2.21 |
| NS(=O)(=O)c1nnc(NC(=O)c2nn(-c3ccc(NN=C(C(=O)c4ccccc4)C(=O)c4ccccc4)cc3)c(-c3ccccc3)c2C(=O)c2ccccc2)s1 | log10 IC50 | 2.85 |
| CC(=O)Cn1c(C)cc2cc(-n3nc(C(=O)Nc4nnc(S(N)(=O)=O)s4)c(C(=O)c4ccccc4)c3-c3ccccc3)ccc21 | log10 IC50 | 2.88 |
| NS(=O)(=O)c1nnc(NC(=O)c2nn(-c3ccc(I)cc3)c(-c3ccccc3)c2C(=O)c2ccccc2)s1 | log10 IC50 | 2.43 |

Prompt: Look at this compound and give its reported log10 IC50. CCOC(=O)C(=NNc1ccc(-n2nc(C(=O)Nc3nnc(S(N)(=O)=O)s3)c(C(=O)c3ccccc3)c2-c2ccccc2)cc1)C(=O)OCC
Completion: 2.93

Prompt: Which measured log10 IC50 value corresponds to CCOC(=O)/C(=N/Nc1ccc(-n2nc(C(=O)Nc3nnc(S(N)(=O)=O)s3)c(C(=O)c3ccccc3)c2-c2ccccc2)cc1)C(C)=O ?
Completion: 3.08

Prompt: What value of log10 IC50 has been recorded for this entry: CC(=O)/C(=N\Nc1ccc(-n2nc(C(=O)Nc3nnc(S(N)(=O)=O)s3)c(C(=O)c3ccccc3)c2-c2ccccc2)cc1)C(=O)OC(C)(C)C
Completion: 2.89

Prompt: Quick one: log10 IC50 of NS(=O)(=O)c1nnc(NC(=O)c2nn(-c3ccc(/N=N/c4c(O)ccc5ccccc45)cc3)c(-c3ccccc3)c2C(=O)c2ccccc2)s1 ?
Completion: 3.46

Prompt: Look up log10 IC50: NS(=O)(=O)c1nnc(NC(=O)c2nn(-c3ccc(/N=N/c4ccc(O)cc4)cc3)c(-c3ccccc3)c2C(=O)c2ccccc2)s1
Completion: 2.30

* * *

# test-target: Carbonic anhydrase 2 (Homo sapiens, UniProt P00918)
# protocol-text: Esterase Activity Assay
# condition-parameters: pH 7.4
observed-property: IC50 (nM)
The reply should contain only the number, in nM.

Examples from the recorded data:
| molecule-smiles | readout-value |
| --- | --- |
| CCOC(=O)/C(=N/Nc1ccc(-n2nc(C(=O)Nc3nnc(S(N)(=O)=O)s3)c(C(=O)c3ccccc3)c2-c2ccccc2)cc1)C(=O)c1ccccc1 | 850 |
| NS(=O)(=O)c1nnc(NC(=O)c2nn(-c3ccc(/N=N/c4c(O)ccc5ccccc45)cc3)c(-c3ccccc3)c2C(=O)c2ccccc2)s1 | 2100 |
| NS(=O)(=O)c1nnc(NC(=O)c2nn(-c3ccc(NN=C(C(=O)c4ccccc4)C(=O)c4ccccc4)cc3)c(-c3ccccc3)c2C(=O)c2ccccc2)s1 | 1420 |
| NS(=O)(=O)c1nnc(NC(=O)c2nn(-c3ccc(I)cc3)c(-c3ccccc3)c2C(=O)c2ccccc2)s1 | 50 |
| NS(=O)(=O)c1nnc(NC(=O)c2nn(-c3ccc(/N=N/c4ccc(O)cc4)cc3)c(-c3ccccc3)c2C(=O)c2ccccc2)s1 | 30 |
| CCOC(=O)/C(=N/Nc1ccc(-n2nc(C(=O)Nc3nnc(S(N)(=O)=O)s3)c(C(=O)c3ccccc3)c2-c2ccccc2)cc1)C(C)=O | 140 |
| CC(=O)Cn1c(C)cc2cc(-n3nc(C(=O)Nc4nnc(S(N)(=O)=O)s4)c(C(=O)c4ccccc4)c3-c3ccccc3)ccc21 | 1740 |
| CC(=O)C(=NNc1ccc(-n2nc(C(=O)Nc3nnc(S(N)(=O)=O)s3)c(C(=O)c3ccccc3)c2-c2ccccc2)cc1)C(C)=O | 130 |
| CC(=O)/C(=N\Nc1ccc(-n2nc(C(=O)Nc3nnc(S(N)(=O)=O)s3)c(C(=O)c3ccccc3)c2-c2ccccc2)cc1)C(=O)c1ccccc1 | 370 |
| CC(=O)/C(=N\Nc1ccc(-n2nc(C(=O)Nc3nnc(S(N)(=O)=O)s3)c(C(=O)c3ccccc3)c2-c2ccccc2)cc1)C(=O)OC(C)(C)C | 80 |

The record that follows has no IC50 shown yet.
Prompt: Hi! What's the reported IC50 for CCOC(=O)C(=NNc1ccc(-n2nc(C(=O)Nc3nnc(S(N)(=O)=O)s3)c(C(=O)c3ccccc3)c2-c2ccccc2)cc1)C(=O)OCC on Carbonic anhydrase 2 (Homo sapiens, UniProt P00918)?
Completion: 70
